SYSTEM: Vitamin D3 receptor (Homo sapiens)
Sequence (P11473 whole entry): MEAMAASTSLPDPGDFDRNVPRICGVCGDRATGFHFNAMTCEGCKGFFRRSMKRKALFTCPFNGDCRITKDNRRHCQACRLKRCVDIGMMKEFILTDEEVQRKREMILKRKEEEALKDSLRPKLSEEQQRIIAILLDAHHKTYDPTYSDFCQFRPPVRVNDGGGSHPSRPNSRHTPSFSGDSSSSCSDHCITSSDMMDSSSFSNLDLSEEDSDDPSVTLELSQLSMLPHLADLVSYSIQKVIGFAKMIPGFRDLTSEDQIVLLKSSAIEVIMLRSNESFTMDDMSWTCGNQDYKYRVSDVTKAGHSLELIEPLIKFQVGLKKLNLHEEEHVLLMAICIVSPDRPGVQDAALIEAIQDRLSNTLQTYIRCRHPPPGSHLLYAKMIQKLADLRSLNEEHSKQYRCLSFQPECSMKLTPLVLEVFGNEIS
PROCEDURE DETAILS: Inhibition of transactivation of human VDR in COS7 cells
Format: functional, cell-based, COS-7
pIC50: −log10 of the molar value.
ASSAY METRIC: pIC50

ENTRY SMILES	pIC50
C=C1C[C@H](C[C@@H](C)[C@H]2CC[C@H]3/C(=C/C=C4C[C@@H](O)C(=C)[C@H](O)C4)CCC[C@]23C)OC1=O	6.52
C[C@H](/C=C/C[C@H](O)C12CC3CC(CC(C3)C1)C2)[C@H]1CC[C@H]2/C(=C/C=C3C[C@@H](O)C[C@H](O)C3)CCC[C@]12C	6.40
